Reported IC50 by item:
target: PE-labeled human PD-L1-Ig binding to Jurkat cell line over-expressing human PD-1 (Jurkat-PD-1) (Homo sapiens, UniProt Q15116); construct: expressed in transfected cells; host or cells: Jurkat; test: Jurkat-PD-1 Cell Binding High-Content Screening Assay (CBA): Method 1; conditions: Jurkat-hPD-1 cells, PE-labeled PD-L1-Ig 20 nM final; read-out: Jurkat HPDL1 PD1 IC50 (uM) (Method 1)
Sequence (Q15116 25-288): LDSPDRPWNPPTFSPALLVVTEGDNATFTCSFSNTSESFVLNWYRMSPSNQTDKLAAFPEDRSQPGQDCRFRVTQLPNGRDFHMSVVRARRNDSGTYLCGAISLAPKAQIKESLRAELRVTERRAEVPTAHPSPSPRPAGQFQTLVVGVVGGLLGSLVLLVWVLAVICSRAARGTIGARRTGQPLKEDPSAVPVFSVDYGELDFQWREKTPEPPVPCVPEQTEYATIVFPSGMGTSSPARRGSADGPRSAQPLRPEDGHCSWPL
Bridge positions count the residues as written; N and C are the ends. Square brackets hold non-standard residues; d marks the D form. Peptide text beside a SMILES is read from it. Bip = N[C@@H](Cc1ccc(-c2ccccc2)cc1)C(=O)O; NMeA = CN[C@@H](C)C(=O)O; Orn = NCCC[C@H](N)C(=O)O; Dab = NCC[C@H](N)C(=O)O
Quantity name: IC50 (µM)

- Molecule: "CC(C)C[C@@H]1NC(=O)[C@H](Cc2c[nH]c3ccccc23)NC(=O)[C@H](CC(=O)O)NC(=O)[C@H](Cc2ccc(O)cc2)NC(=O)[C@H](Cc2ccccc2)NC(=O)CSC[C@@H](C(=O)N[C@@H](C)C(N)=O)NC(=O)[C@H]([C@@H](C)O)NC(=O)[C@H](CCCN)NC(=O)[C@H](CC(C)C)NC(=O)[C@H](CC(N)=O)NC(=O)[C@@H](C)NC(=O)[C@H](C)N(C)C(=O)[C@H](C(C)C)NC(=O)[C@H](Cc2ccc(-c3ccccc3)cc2)NC1=O [Compound 1533] ({CH2CO}-FYDWL[Bip]V[NMeA][dA]NL[Orn]TCA-NH2; thioether N-14)"
  Measured number: 0.15
- Molecule: "CC(C)C[C@@H]1NC(=O)[C@H](CCN)NC(=O)[C@@H](CC(C)C)NC(=O)[C@H](C)N(C)C(=O)[C@H](CCCN)NC(=O)[C@H](Cc2ccc(-c3ccccc3)cc2)NC(=O)[C@H](C(C)C)NC(=O)[C@H](Cc2c[nH]c3ccccc23)NC(=O)[C@H](CC(=O)O)NC(=O)[C@H](Cc2ccc(O)cc2)NC(=O)[C@H](CC(N)=O)NC(=O)CSC[C@@H](C(=O)N[C@@H](C)C(N)=O)NC(=O)[C@H]([C@@H](C)O)NC(=O)[C@H](C(C)C)NC1=O [Compound 1266] ({CH2CO}-NYDWV[Bip][Orn][NMeA][dL][Dab]LVTCA-NH2; thioether N-14)"
  Measured number: 0.03
